experimental_target: Neuronal acetylcholine receptor; alpha4/beta2 (Rattus norvegicus) (UniProt P09483+P12390)
measurement_notes: Agonist activity at rat alpha4beta2 nAChR expressed in Xenopus laevis oocytes assessed as mean current response at 100 uM by two-electrode voltage clamp electrophysiology assay relative to acetylcholine
Format: cell-based
measured_endpoint: Activity (%)
// units = %; emit number, no label

INSERT INTO results (compound, measured_endpoint, observed) VALUES
  ('Clc1ccc(-c2cncc([C@H]3C[C@H]4CC[C@H]3N4)c2)cn1 (racemic)', 'Activity', 0),
  ('Nc1cc(-c2cncc([C@H]3C[C@H]4CC[C@H]3N4)c2)ccn1 (racemic)', 'Activity', 0);

Query: Report Activity for Clc1cc(-c2cncc([C@H]3C[C@H]4CC[C@H]3N4)c2)ccn1 (racemic) please.
Result: 0

Query: Entry to check: Nc1ccc(-c2cncc([C@H]3C[C@H]4CC[C@H]3N4)c2)cn1 (racemic)
Result: 0

Query: Entry to check: Clc1ccc([C@H]2C[C@H]3CC[C@H]2N3)cn1
Result: 131

====

experimental_target: Neuronal acetylcholine receptor; alpha4/beta2 (Rattus norvegicus, UniProt P09483+P12390)
Sequence (P09483 whole entry): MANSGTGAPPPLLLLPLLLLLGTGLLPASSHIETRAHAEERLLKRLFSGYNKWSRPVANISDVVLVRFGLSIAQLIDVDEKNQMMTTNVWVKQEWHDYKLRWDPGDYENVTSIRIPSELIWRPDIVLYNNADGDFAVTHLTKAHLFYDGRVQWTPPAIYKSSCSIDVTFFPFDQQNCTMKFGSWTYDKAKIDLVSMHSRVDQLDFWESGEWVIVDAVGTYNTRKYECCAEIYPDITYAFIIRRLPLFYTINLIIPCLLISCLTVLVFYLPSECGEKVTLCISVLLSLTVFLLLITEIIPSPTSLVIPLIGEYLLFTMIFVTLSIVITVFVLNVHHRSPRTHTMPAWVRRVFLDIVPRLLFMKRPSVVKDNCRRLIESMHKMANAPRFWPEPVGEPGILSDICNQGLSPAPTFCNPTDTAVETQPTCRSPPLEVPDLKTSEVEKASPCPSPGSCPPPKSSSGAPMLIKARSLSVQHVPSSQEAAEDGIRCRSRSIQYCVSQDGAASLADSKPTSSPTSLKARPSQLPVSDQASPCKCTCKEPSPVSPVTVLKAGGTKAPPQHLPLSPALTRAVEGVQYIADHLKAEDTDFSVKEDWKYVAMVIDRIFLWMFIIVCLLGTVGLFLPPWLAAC
Sequence (P12390 whole entry): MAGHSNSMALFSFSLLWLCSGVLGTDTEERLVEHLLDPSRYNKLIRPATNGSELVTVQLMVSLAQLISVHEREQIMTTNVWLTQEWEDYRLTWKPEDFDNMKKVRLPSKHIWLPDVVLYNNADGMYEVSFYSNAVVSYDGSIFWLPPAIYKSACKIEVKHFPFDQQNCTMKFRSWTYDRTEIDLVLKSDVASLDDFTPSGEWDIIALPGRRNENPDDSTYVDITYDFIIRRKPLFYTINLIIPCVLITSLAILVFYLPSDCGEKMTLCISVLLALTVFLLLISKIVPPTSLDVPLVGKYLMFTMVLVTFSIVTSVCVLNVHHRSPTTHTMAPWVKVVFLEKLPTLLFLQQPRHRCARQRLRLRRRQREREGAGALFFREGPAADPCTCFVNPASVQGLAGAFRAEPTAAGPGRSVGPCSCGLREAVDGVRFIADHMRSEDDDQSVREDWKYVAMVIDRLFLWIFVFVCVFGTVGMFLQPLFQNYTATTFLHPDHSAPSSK
measurement_notes: Displacement of [3H]-epibatidine from alpha4beta2 nAChR in rat cerebral cortex homogenates after 4 hrs by liquid scintillation counting
Below, each of the compounds is paired with its reported pKi value.
# log scale: pKi equals minus log10 of the concentration in mol/L

Recorded results for 9 compounds are shown here.
INSERT INTO measurements (compound, experimental_target, observed) VALUES
  ('Fc1cc(-c2cncc([C@H]3C[C@H]4CC[C@H]3N4)c2)ccn1 (racemic)', 'Neuronal acetylcholine receptor; alpha4/beta2 (Rattus norvegicus, UniProt P09483+P12390)', 9.74),
  ('Clc1cc(-c2cncc([C@H]3C[C@H]4CC[C@H]3N4)c2)ccn1 (racemic)', 'Neuronal acetylcholine receptor; alpha4/beta2 (Rattus norvegicus, UniProt P09483+P12390)', 9.54),
  ('Fc1ccc(-c2cncc([C@H]3C[C@H]4CC[C@H]3N4)c2)cn1 (racemic)', 'Neuronal acetylcholine receptor; alpha4/beta2 (Rattus norvegicus, UniProt P09483+P12390)', 9.89),
  ('Clc1ccc(-c2cncc([C@H]3C[C@H]4CC[C@H]3N4)c2)cn1 (racemic)', 'Neuronal acetylcholine receptor; alpha4/beta2 (Rattus norvegicus, UniProt P09483+P12390)', 9.92),
  ('Nc1cc(-c2cncc([C@H]3C[C@H]4CC[C@H]3N4)c2)ccn1 (racemic)', 'Neuronal acetylcholine receptor; alpha4/beta2 (Rattus norvegicus, UniProt P09483+P12390)', 9.42),
  ('COc1cc(-c2cncc([C@H]3C[C@H]4CC[C@H]3N4)c2)ccn1 (racemic)', 'Neuronal acetylcholine receptor; alpha4/beta2 (Rattus norvegicus, UniProt P09483+P12390)', 10.03),
  ('COc1ccc(-c2cncc([C@H]3C[C@H]4CC[C@H]3N4)c2)cn1 (racemic)', 'Neuronal acetylcholine receptor; alpha4/beta2 (Rattus norvegicus, UniProt P09483+P12390)', 9.57),
  ('c1cncc(-c2cncc([C@H]3C[C@H]4CC[C@H]3N4)c2)c1 (racemic)', 'Neuronal acetylcholine receptor; alpha4/beta2 (Rattus norvegicus, UniProt P09483+P12390)', 9.09),
  ('c1cc(-c2cncc([C@H]3C[C@H]4CC[C@H]3N4)c2)ccn1 (racemic)', 'Neuronal acetylcholine receptor; alpha4/beta2 (Rattus norvegicus, UniProt P09483+P12390)', 9.66);

Query: Report pKi for Nc1ccc(-c2cncc([C@H]3C[C@H]4CC[C@H]3N4)c2)cn1 (racemic) please.
Result: 9.05

====

Below, each of the compounds is paired with its reported Activity value.
experimental_target: Neuronal acetylcholine receptor; alpha4/beta2 (Rattus norvegicus) (UniProt P09483+P12390)
measurement_notes: Agonist activity at rat alpha4beta2 nAChR expressed in Xenopus laevis oocytes assessed as mean current response at 100 uM by two-electrode voltage clamp electrophysiology assay relative to acetylcholine
Format: cell-based

Recorded results for 2 compounds are shown here.
INSERT INTO results (compound, observed) VALUES
  ('c1cncc(-c2cncc([C@H]3C[C@H]4CC[C@H]3N4)c2)c1 (racemic)', '0%'),
  ('c1cc(-c2cncc([C@H]3C[C@H]4CC[C@H]3N4)c2)ccn1 (racemic)', '1%');

Query: Report Activity for COc1cc(-c2cncc([C@H]3C[C@H]4CC[C@H]3N4)c2)ccn1 (racemic) please.
Result: 0%

Query: Entry to check: Fc1cc(-c2cncc([C@H]3C[C@H]4CC[C@H]3N4)c2)ccn1 (racemic)
Result: 0%

Query: Entry to check: CN1CCC[C@H]1c1cccnc1
Result: 40%

====

experimental_target: Neuronal acetylcholine receptor subunit alpha-7 (Rattus norvegicus) (UniProt Q05941)
Sequence (Q05941 whole entry): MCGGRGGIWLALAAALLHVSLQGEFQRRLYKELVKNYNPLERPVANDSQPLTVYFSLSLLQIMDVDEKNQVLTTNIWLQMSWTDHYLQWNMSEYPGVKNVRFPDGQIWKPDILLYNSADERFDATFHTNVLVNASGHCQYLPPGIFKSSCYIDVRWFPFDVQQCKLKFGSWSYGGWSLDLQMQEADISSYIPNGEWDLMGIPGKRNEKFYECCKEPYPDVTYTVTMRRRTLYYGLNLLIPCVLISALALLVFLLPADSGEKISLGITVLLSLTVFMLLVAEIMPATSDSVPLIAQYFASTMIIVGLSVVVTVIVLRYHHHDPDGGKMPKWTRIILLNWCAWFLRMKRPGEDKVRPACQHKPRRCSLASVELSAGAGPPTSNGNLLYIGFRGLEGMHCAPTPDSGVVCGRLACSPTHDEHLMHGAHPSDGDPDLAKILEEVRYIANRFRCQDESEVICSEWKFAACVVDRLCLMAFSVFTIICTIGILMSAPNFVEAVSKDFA
measurement_notes: Agonist activity at rat alpha7 nAChR expressed in Xenopus laevis oocytes assessed as mean current response at 100 uM by two-electrode voltage clamp electrophysiology assay relative to acetylcholine
Format: cell-based
measured_endpoint: Activity (%)
// units = %; emit number, no label

INSERT INTO assay_data (compound, measured_endpoint, unit_annotation, observed) VALUES
  ('Clc1cc(-c2cncc([C@H]3C[C@H]4CC[C@H]3N4)c2)ccn1 (racemic)', 'Activity', '%', 8.1);

Query: Report Activity for Clc1ccc([C@H]2C[C@H]3CC[C@H]2N3)cn1 please.
Result: 150

Query: Entry to check: c1cncc(-c2cncc([C@H]3C[C@H]4CC[C@H]3N4)c2)c1 (racemic)
Result: 5.8

Query: Entry to check: COc1ccc(-c2cncc([C@H]3C[C@H]4CC[C@H]3N4)c2)cn1 (racemic)
Result: 1.2

Query: Entry to check: c1cnc2cc3c(cc2n1)[C@@H]1CNC[C@H]3C1
Result: 74

Query: Entry to check: Fc1ccc(-c2cncc([C@H]3C[C@H]4CC[C@H]3N4)c2)cn1 (racemic)
Result: 0

Query: Entry to check: Fc1cc(-c2cncc([C@H]3C[C@H]4CC[C@H]3N4)c2)ccn1 (racemic)
Result: 5.7

Query: Entry to check: CN1CCC[C@H]1c1cccnc1
Result: 43

Query: Entry to check: Nc1ccc(-c2cncc([C@H]3C[C@H]4CC[C@H]3N4)c2)cn1 (racemic)
Result: 7

Query: Entry to check: COc1cc(-c2cncc([C@H]3C[C@H]4CC[C@H]3N4)c2)ccn1 (racemic)
Result: 16

Query: Entry to check: Clc1ccc(-c2cncc([C@H]3C[C@H]4CC[C@H]3N4)c2)cn1 (racemic)
Result: 4.8

Query: Entry to check: c1cc(-c2cncc([C@H]3C[C@H]4CC[C@H]3N4)c2)ccn1 (racemic)
Result: 8.1

Query: Entry to check: Nc1cc(-c2cncc([C@H]3C[C@H]4CC[C@H]3N4)c2)ccn1 (racemic)
Result: 12

====

experimental_target: Neuronal acetylcholine receptor; alpha3/beta4 (Rattus norvegicus, UniProt P04757+P12392)
Sequence (P04757 whole entry): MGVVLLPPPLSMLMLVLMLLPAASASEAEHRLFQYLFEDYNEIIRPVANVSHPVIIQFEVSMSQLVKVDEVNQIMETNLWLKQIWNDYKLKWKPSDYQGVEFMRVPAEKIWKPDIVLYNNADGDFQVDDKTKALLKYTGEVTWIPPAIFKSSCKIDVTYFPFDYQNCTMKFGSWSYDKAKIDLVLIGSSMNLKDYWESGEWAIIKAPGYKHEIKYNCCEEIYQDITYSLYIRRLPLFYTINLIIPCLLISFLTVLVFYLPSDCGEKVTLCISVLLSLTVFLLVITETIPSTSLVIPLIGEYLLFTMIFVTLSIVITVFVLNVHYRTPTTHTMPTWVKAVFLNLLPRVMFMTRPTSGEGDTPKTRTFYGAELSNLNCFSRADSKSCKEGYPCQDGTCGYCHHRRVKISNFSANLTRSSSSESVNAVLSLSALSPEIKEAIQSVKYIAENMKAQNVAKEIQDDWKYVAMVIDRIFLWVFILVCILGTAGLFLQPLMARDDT
Sequence (P12392 whole entry): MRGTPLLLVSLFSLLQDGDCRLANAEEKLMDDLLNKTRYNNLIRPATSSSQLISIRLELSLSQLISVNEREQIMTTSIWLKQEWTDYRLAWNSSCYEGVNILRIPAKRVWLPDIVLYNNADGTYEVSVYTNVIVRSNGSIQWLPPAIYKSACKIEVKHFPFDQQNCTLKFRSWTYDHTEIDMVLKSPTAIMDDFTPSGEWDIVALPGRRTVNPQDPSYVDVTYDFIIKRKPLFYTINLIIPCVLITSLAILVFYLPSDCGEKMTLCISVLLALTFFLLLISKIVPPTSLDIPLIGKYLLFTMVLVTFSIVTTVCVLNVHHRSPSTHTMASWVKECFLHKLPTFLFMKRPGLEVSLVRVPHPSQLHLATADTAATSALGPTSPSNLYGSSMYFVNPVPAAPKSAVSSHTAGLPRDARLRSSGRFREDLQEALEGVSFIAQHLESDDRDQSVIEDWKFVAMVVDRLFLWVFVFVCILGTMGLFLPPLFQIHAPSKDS
measurement_notes: Antagonist activity at rat alpha3beta4 nAChR expressed in Xenopus laevis oocytes assessed as inhibition of acetylcholine-induced mean current response by two-electrode voltage clamp electrophysiology assay
measured_endpoint: IC50 (µM)
// units = µM; emit number, no label

Recorded results for 7 molecules are shown here.
INSERT INTO measurements (molecule, measured_endpoint, unit_annotation, observed) VALUES
  ('c1cc(-c2cncc([C@H]3C[C@H]4CC[C@H]3N4)c2)ccn1 (racemic)', 'IC50', 'µM', 23),
  ('Clc1ccc(-c2cncc([C@H]3C[C@H]4CC[C@H]3N4)c2)cn1 (racemic)', 'IC50', 'µM', 24),
  ('Clc1cc(-c2cncc([C@H]3C[C@H]4CC[C@H]3N4)c2)ccn1 (racemic)', 'IC50', 'µM', 20),
  ('COc1ccc(-c2cncc([C@H]3C[C@H]4CC[C@H]3N4)c2)cn1 (racemic)', 'IC50', 'µM', 8.2),
  ('Fc1cc(-c2cncc([C@H]3C[C@H]4CC[C@H]3N4)c2)ccn1 (racemic)', 'IC50', 'µM', 23),
  ('c1cncc(-c2cncc([C@H]3C[C@H]4CC[C@H]3N4)c2)c1 (racemic)', 'IC50', 'µM', 22),
  ('Fc1ccc(-c2cncc([C@H]3C[C@H]4CC[C@H]3N4)c2)cn1 (racemic)', 'IC50', 'µM', 33);

Now for the molecule whose IC50 we want.
Query: Item: COc1cc(-c2cncc([C@H]3C[C@H]4CC[C@H]3N4)c2)ccn1 (racemic) Test system: Neuronal acetylcholine receptor; alpha3/beta4 (Rattus norvegicus, UniProt P04757+P12392) Read-out: IC50 Value: ?
Result: 13

====

Below, each of the compounds is paired with its reported residual activity value.
experimental_target: Neuronal acetylcholine receptor subunit alpha-7 (Rattus norvegicus) (UniProt Q05941)
measurement_notes: Antagonist activity at rat alpha7 nAChR expressed in Xenopus laevis oocytes assessed as inhibition of acetylcholine-induced mean current response by measuring remaining current at 100 uM by two-electrode voltage clamp electrophysiology assay relative to control; values are per cent of control
Please provide the amount together with its unit, number first.

INSERT INTO results (compound, observed) VALUES
  ('c1cc(-c2cncc([C@H]3C[C@H]4CC[C@H]3N4)c2)ccn1 (racemic)', '69%'),
  ('Fc1cc(-c2cncc([C@H]3C[C@H]4CC[C@H]3N4)c2)ccn1 (racemic)', '90%'),
  ('Clc1cc(-c2cncc([C@H]3C[C@H]4CC[C@H]3N4)c2)ccn1 (racemic)', '47%'),
  ('COc1ccc(-c2cncc([C@H]3C[C@H]4CC[C@H]3N4)c2)cn1 (racemic)', '18%'),
  ('COc1cc(-c2cncc([C@H]3C[C@H]4CC[C@H]3N4)c2)ccn1 (racemic)', '47%');

Now for the compound whose residual activity we want.
Query: Report residual activity for Nc1cc(-c2cncc([C@H]3C[C@H]4CC[C@H]3N4)c2)ccn1 (racemic) please.
Result: 44%
